Measured values drawn from patent US20220380475A1 for this set.

- Tgt: T1, cynomolgus monkey soluble IL-6R (from cynomolgus monkey serum) (cynomolgus monkey, UniProt P08887 20-365 (human entry))
- T1 construct: Natural soluble IL-6R present in diluted normal cynomolgus monkey serum; also called cyno IL6R; cynomolgous sIL-6R
- T1 chain: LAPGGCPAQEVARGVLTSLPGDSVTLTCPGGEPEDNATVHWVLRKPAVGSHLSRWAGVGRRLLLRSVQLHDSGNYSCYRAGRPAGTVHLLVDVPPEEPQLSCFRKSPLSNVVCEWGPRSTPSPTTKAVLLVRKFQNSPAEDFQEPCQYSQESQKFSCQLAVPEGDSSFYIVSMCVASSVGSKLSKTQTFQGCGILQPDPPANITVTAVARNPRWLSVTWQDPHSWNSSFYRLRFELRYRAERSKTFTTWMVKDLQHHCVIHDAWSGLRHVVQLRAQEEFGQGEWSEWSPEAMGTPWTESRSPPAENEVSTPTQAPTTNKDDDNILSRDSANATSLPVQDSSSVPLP
- Experiment Notes: ratio of gp130 ELISA IC50s on human and cynomolgus sIL-6R
- Description: The standard anti-cynomolgus monkey IL-6R gp130 ELISA assay detailed under ‘Potency, neutralisation and inhibition’ above was performed to assay the ICVDs in parallel for their ability to neutralise sIL6R in cynomolgous monkey serum and recombinant purified human sIL6R. Briefly, Maxisorp 96-well plates were coated overnight with 50 μl/well 1 μg/ml gp130 then blocked. […]
Hi there, I'd appreciate the recorded Ratio Cyno IC50/human IC50 (title: human IC50 divided by cynomolgous IC50) for every entry that follows.

5G9 (VHH, also called VIL-5G9; 'Wild type' 5G9; not shown: C-terminal Flag and 6xHis tags from vector pMEK222) VHH: EVQLVESGGGLVQAGGSTRLTCKASGSIFNINSINVMAWYRQAPGKQRELVAIIGKGGGTNYADFVKGRFTISRDAAKNTVNLQMNSLKPEDTAVYYCYADYEDRDSPFNASWGQGTQVTVSS	0.2

Would you kindly look at the next entry?
Ratio Cyno IC50/human IC50 (title: human IC50 divided by cynomolgous IC50) for 7F6 (VHH, also called VIL-7F6; 'Wild type' 7F6; not shown: C-terminal Flag and 6xHis tags from vector pMEK222) VHH: EVQLVESGGGLVQAGGSTRLTCLASGSISSINVIGWYRQAPGKQRELVAMIGRGEGANYGDFAKGRFTISRDNSKNTVYLQMNSLKPEDTAVYYCYADYEDRDSPFNGSWGQGTQVTVSS ? 1.2
